Please go through the items and note down their inhibition.
- TESTED SYSTEM: Rac GTPase-activating protein 1 (Homo sapiens) (UniProt Q9H0H5)
- Sequence (Q9H0H5 whole entry, looked up): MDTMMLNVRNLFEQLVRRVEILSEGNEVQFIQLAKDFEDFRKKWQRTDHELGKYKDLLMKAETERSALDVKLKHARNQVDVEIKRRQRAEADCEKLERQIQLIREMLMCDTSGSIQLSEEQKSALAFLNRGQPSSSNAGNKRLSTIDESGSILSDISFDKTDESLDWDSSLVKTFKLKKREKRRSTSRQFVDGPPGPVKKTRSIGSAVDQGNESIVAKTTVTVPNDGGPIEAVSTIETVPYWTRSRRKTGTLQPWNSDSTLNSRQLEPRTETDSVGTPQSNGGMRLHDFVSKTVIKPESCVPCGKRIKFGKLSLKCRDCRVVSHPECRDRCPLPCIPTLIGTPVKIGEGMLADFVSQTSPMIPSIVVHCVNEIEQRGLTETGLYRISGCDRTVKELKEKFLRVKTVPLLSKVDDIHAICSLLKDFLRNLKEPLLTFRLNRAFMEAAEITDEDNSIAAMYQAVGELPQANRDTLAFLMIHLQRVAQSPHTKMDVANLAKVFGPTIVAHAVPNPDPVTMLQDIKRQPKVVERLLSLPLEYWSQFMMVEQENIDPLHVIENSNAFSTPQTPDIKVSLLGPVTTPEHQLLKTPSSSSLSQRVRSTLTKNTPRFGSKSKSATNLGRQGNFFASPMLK
- PROCEDURE TEXT: blockers of MgcRacGAP-driven Rac1 GTP hydrolysis – biochemical, ADP Hunter fluorescence, primary and confirmatory, confirmation (AID 624330);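 also: fluorescence reports GDP produced by GAP-driven GTP hydrolysis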
- EXPERIMENTAL PARAMETERS: MgcRacGAP-stimulated Rac1 GTP hydrolysis, at 30 µM, hits give high values, GST-tagged Rac1 F28L mutant substrate
The campaign covered roughly 340,000 compounds. About 2,100 (0.62%) were called active. Not all results are given here. Potency and affinity values are given separately.
Response body: numeric value in %, unit text excluded.

Ask: If you can, please state the reported inhibition value of C=C(C)c1ccc(C(C)(C)NC(=O)N(Cc2ccccc2)Cc2ccco2)cc1 .
Reply: 0.01

Ask: Then CC1=C(C)CS(=O)N(S(=O)(=O)c2ccccc2)C1 (configuration not stated) ?
Reply: 30.6

Ask: Then COc1cccc(C(=O)NC(=S)Nc2ccccc2N2CCOCC2)c1 ?
Reply: 6.71

Ask: Then C/C(=N/OC(=O)c1ccccc1Br)c1ccc(C)cc1 ?
Reply: 6.4

Ask: Then C[C@@H]1CN([C@H](C)CO)C(=O)c2cc(Br)cnc2O[C@@H]1CN(C)C(=O)C1CCOCC1 ?
Reply: 8.56

Ask: Then N#Cc1cc(C(=O)Cc2ccccc2)c[nH]1 ?
Reply: -3.54

Ask: Then COc1ccc(O[C@@H]2O[C@H](COC(C)=O)[C@@H](OC(C)=O)[C@H](OC(C)=O)[C@H]2NC(C)=O)cc1 ?
Reply: 5.33

Ask: Then CCN1CCN(CC(O)COc2cccc(OC)c2)CC1 (configuration not stated) ?
Reply: 8.83

Ask: Then COc1ccccc1NC(=O)NCc1ccccc1F ?
Reply: 5.13

Ask: Then Nc1nc(-c2cccs2)cs1 ?
Reply: 18.1

Ask: Then CN(C)C(=O)CCc1nc2sc3c(c2c(=O)[nH]1)CCCC3 ?
Reply: 18

Ask: Then CCC(=O)Nc1cc(-c2nn(C)c(=O)c3ccccc23)ccc1OC ?
Reply: 5.48

Ask: Then O=c1c2ccccc2sc2ccc(Cl)cc12 ?
Reply: 5.89

Ask: Then O=C1CC(Nc2ccccc2)C(=O)N1Cc1ccccc1 (configuration not stated) ?
Reply: 7.76

Ask: Then CC(=O)Nc1ccc(NCc2cccs2)cc1 ?
Reply: 31.6

Ask: Then COc1ccc(OC)c2c(C)cc(C)nc12 ?
Reply: 4.59

Ask: Then COc1cccc2c(C)c(C(=O)O)[nH]c12 ?
Reply: 7.15

Ask: Then CC(=O)NC1C(Oc2ccc(C=O)cc2)OC(COC(C)=O)C(OC(C)=O)C1OC(C)=O (configuration not stated) ?
Reply: 0.46

Ask: Then Cc1noc(C)c1NC(=O)Nc1cccc2c1O[C@@H](CN(C)Cc1ccc3c(c1)OCO3)[C@@H](C)CN([C@H](C)CO)C2=O ?
Reply: 4.09

Ask: Then OC(CN1CCN(C(c2ccccc2)c2ccccc2)CC1)c1ccccc1 (configuration not stated) ?
Reply: 8.44

Ask: Then Cc1cccc(CNc2ccc(S(=O)(=O)N3CCCCC3)cc2)c1 ?
Reply: 2.94

Ask: Then O=C(CSc1c2c(nc3ccccc13)CCC2)N1CCCC1 ?
Reply: 10.3

Ask: Then CC(=O)c1cccc(-c2ccc3c(=O)[nH]c(Nc4ccccc4)cc3c2)c1 ?
Reply: 0.61

Ask: Then O=c1c2cc([N+](=O)[O-])ccc2sn1-c1ccccc1 ?
Reply: 17.4

Ask: Then c1ccc(-c2nc(-c3cccnc3)cs2)cc1 ?
Reply: 7.12

Ask: Then Cn1nnnc1SCCNCc1cccnc1 ?
Reply: -1.39

Ask: Then CN(c1nc(-c2ccccc2)cs1)C1CCS(=O)(=O)C1 (configuration not stated) ?
Reply: 8.88

Ask: Then Cc1cc(O)ccc1Nc1nc(-c2cccnc2)cs1 ?
Reply: 28.4

Ask: Then CCCc1nc(NCc2ccncc2)c2nnn(Cc3ccccc3F)c2n1 ?
Reply: 10.9

Ask: Then CC(C)C(=O)N1CCN(CCN2C(=O)c3cccc4cccc(c34)C2=O)CC1 ?
Reply: 12.5

Ask: Then c1csc(-c2csc(-c3cccs3)n2)c1 ?
Reply: 7.41

Ask: Then COCCN(CC(=O)NCc1ccc(OC)cc1)C(=O)CCC(=O)Nc1nccs1 ?
Reply: 9.76

Ask: Then CSCC[C@H](NC(=O)C1CCC(CNC(=O)[C@@H]2CCCN2C(=O)OC(C)(C)C)CC1)C(=O)O (some centres not stated) ?
Reply: 0.46

Ask: Then CC(=O)N1CCN(c2ccc(NC(=O)c3cccc(C)c3)cc2)CC1 ?
Reply: -9.43

Ask: Then O=C(CSc1nccc(=O)[nH]1)NN(c1ccccc1)c1ccccc1 ?
Reply: 11.2

Ask: Then O=c1c2ccccc2sn1-c1ccc(S(=O)(=O)N2CCCCC2)cc1 ?
Reply: 10.2

Ask: Then CC1=NN(c2ccccc2)C(=O)C1c1ccccc1 (configuration not stated) ?
Reply: 26.3

Ask: Then NS(=O)(=O)c1ccc(CCNC(=O)c2ccc(Cl)nc2)cc1 ?
Reply: 4.85

Ask: Then CC1=CC(C)(C)N(C)C(=O)N1c1ccc(Cl)cc1 ?
Reply: 6.14

Ask: Then COc1cccc(OCC(O)CN2CCOCC2)c1 (configuration not stated) ?
Reply: 6.97

Ask: Then O=c1c2ccccc2cnn1-c1ccc(Cl)cc1 ?
Reply: 1.97

Ask: Then C/C(=N\NC(=O)CNC(=O)c1ccccc1F)c1ccco1 ?
Reply: 2.16

Ask: Then CN(C(=O)c1cccnc1)c1nc(-c2ccccc2)cs1 ?
Reply: 0.25

Ask: Then CCc1cc(=O)oc2c(C)c(OCC(=O)NCCCn3ccnc3)ccc12 ?
Reply: 5.6

Ask: Then Cc1cc(=O)cc(C)n1-c1ccc(Cl)cc1 ?
Reply: 5

Ask: Then CC1=NN(c2ccccc2)C(=O)C1(C)C ?
Reply: 12.1

Ask: Then Cc1cccc(N2CCN(C(=O)c3ccc4c(c3)c(C)c(C)n4C)CC2C)c1 (configuration not stated) ?
Reply: -37

----------
- TESTED SYSTEM: Rac GTPase-activating protein 1 (Homo sapiens)
- PROCEDURE TEXT: blockers of MgcRacGAP-driven Rac1 GTP hydrolysis – biochemical, ADP Hunter fluorescence, primary and confirmatory, confirmation (AID 624330);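 also: fluorescence reports GDP produced by GAP-driven GTP hydrolysis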
- EXPERIMENTAL PARAMETERS: MgcRacGAP-stimulated Rac1 GTP hydrolysis, at 30 µM, hits give high values, GST-tagged Rac1 F28L mutant substrate
Among all 340,000 compounds or so, about 2,100 (0.62%) were called active. The list is a sample of the results. Potency and affinity values are given separately.
RECORDED METRIC: inhibition (%)
Response body: numeric value in %, unit text excluded.

Ask: API: value(readout=inhibition, system=Rac GTPase-activating protein 1 (Homo sapiens)) for record C[C@@H](NC(=O)C[C@@H]1C[C@@H]2c3cc(NS(=O)(=O)c4ccc(F)cc4)ccc3O[C@@H]2[C@@H](CO)O1)c1ccccc1
Reply: 14.8

Ask: Then CCCCOc1cccc(/C=C(\C#N)C(=O)NC2CC2)c1 ?
Reply: 4.72

Ask: Then Cc1ccc(C(=O)O)cc1S(=O)(=O)N1CCC(C(=O)O)CC1 ?
Reply: 3.35

Ask: Then Cc1ccc(N2CCN(S(=O)(=O)c3ccc(C)cc3)CC2)cc1 ?
Reply: 8.85

Ask: Then Cc1cc(C)c(C)c(S(=O)(=O)N2CCC(C(=O)N3CCN(c4ccc(F)cc4)CC3)CC2)c1C ?
Reply: 3.44

Ask: Then Cc1cc(C)c(C)c(S(=O)(=O)N2CCN(C)CC2)c1C ?
Reply: 9.5

Ask: Then COc1ccc(O)c(-c2cc(-c3cccc(Br)c3)n[nH]2)c1 ?
Reply: 10.7

Ask: Then COc1cccc(N2CCN(S(=O)(=O)c3ccc4ccccc4c3)CC2)c1 ?
Reply: -3.05

Ask: Then COc1ccc(S(=O)(=O)N2CCC(N3CCCC3)CC2)cc1 ?
Reply: 21

Ask: Then CC(C)[C@H](N)c1cn([C@@H](CO)C(=O)N2CCNCC2)nn1 ?
Reply: 6.71

----------
Please go through the items and note down their inhibition.
- TESTED SYSTEM: Rac GTPase-activating protein 1 (Homo sapiens)
- PROCEDURE TEXT: blockers of MgcRacGAP-driven Rac1 GTP hydrolysis – biochemical, ADP Hunter fluorescence, primary and confirmatory, confirmation (AID 624330);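 also: fluorescence reports GDP produced by GAP-driven GTP hydrolysis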
- EXPERIMENTAL PARAMETERS: MgcRacGAP-stimulated Rac1 GTP hydrolysis, at 30 µM, hits give high values, GST-tagged Rac1 F28L mutant substrate
In all, about 340,000 compounds went through this assay and about 2,100 (0.62%) were called active. Only a sample is shown. Results with a measured potency or affinity are listed apart.

Ask: API: value(readout=inhibition, system=Rac GTPase-activating protein 1 (Homo sapiens)) for record CCOCCCn1c(SCc2ccccc2)nnc1-c1ccncc1
Reply: 7.47% (inactive)

Ask: Then Nc1ccc2nc(-c3cccc(-c4nc5ccc(N)cc5[nH]4)n3)[nH]c2c1 ?
Reply: 16.5% (inactive)

Ask: Then COc1ccccc1/C=C/C(=O)c1cc(Br)ccc1OC(=O)c1ccco1 ?
Reply: 8.54% (inactive)

Ask: Then O=C1c2ccc([N+](=O)[O-])cc2S(=O)(=O)N1Cc1ccccc1 ?
Reply: 11.7% (inactive)

Ask: Then CN(C)CCCn1c(SCc2c(Cl)cccc2Cl)nnc1-c1ccncc1 ?
Reply: 25.2% (inactive)

Ask: Then Cc1ccc(NC(=O)c2csc(-c3ccccc3)c2C)cc1 ?
Reply: 9.66% (inactive)
